# MEASURED TARGET: CRBN-DDB1 (Homo sapiens)
# Sequence (Q96SW2 whole entry): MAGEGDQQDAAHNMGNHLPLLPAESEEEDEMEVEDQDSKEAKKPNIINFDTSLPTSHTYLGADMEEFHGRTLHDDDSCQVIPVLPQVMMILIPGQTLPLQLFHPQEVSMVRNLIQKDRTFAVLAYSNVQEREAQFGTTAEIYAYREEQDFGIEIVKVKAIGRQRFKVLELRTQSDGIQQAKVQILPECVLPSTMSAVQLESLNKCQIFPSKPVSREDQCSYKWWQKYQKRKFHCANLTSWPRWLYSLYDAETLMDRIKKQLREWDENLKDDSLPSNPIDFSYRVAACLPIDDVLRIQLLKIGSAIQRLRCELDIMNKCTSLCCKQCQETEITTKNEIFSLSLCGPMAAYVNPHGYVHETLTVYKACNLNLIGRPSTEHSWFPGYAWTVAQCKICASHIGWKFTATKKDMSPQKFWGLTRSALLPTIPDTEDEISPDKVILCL
# Sequence (Q16531 whole entry partner): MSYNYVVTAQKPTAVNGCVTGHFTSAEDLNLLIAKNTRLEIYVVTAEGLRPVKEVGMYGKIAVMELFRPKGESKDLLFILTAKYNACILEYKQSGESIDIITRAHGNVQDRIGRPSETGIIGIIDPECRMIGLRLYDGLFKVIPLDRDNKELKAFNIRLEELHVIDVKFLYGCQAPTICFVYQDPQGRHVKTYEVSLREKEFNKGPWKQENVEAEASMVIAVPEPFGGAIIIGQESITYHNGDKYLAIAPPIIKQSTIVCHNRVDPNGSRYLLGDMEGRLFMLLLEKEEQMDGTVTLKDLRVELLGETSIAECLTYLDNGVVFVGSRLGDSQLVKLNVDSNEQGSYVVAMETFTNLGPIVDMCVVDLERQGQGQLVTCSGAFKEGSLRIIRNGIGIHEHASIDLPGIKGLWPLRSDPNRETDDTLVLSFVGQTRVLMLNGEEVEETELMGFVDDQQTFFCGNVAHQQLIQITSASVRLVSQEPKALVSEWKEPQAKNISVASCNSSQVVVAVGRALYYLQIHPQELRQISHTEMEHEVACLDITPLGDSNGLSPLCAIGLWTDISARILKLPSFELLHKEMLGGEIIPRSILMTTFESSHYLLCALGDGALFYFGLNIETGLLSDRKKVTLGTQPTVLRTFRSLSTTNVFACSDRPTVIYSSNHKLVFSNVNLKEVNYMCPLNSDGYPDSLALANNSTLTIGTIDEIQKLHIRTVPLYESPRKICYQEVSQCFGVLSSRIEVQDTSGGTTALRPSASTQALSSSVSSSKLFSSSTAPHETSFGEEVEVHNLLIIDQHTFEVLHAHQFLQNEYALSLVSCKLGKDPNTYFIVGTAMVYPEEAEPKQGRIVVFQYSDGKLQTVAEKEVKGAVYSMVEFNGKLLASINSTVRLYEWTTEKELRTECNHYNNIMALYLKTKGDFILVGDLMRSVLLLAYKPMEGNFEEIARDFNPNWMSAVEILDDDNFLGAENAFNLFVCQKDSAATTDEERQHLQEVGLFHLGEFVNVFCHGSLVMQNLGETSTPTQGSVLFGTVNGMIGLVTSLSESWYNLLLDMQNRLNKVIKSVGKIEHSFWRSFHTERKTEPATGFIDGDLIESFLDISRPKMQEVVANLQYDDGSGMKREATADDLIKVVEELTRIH
# IC50 per entry

Previously resolved entries follow.
INSERT INTO assay_data (compound, result) VALUES
  ('O=C1Cc2cc(F)ccc2C(=O)N1', '> 100 µM'),
  ('Nc1ccc2c(c1)C1(CC(=O)NC1=O)NC2=O (stereo not shown)', '> 100 µM');

Exam item: State the recorded IC50 for this entry: O=C1Cc2cccc(F)c2C(=O)N1
Marked response: 30 to 100 µM

Exam item: State the recorded IC50 for this entry: COc1ccccc1-c1ccc2c(c1)C(=O)NC(=O)C2
Marked response: 30 to 100 µM

Exam item: State the recorded IC50 for this entry: NCCCC#Cc1cccc(Oc2cccc3c2C(=O)NC(=O)C3)c1
Marked response: 10 to 30 µM

Exam item: State the recorded IC50 for this entry: O=C1Cc2cccc(Nc3ccccc3)c2C(=O)N1
Marked response: 30 to 100 µM

Exam item: State the recorded IC50 for this entry: O=C1Cc2cccc(Oc3cccnc3)c2C(=O)N1
Marked response: 10 to 30 µM
